System: Immature Sprague-Dawley rats
Assay: Rat uterotrophic/antiuterotrophic bioassay
Assay type: in vivo
Details: immature female rats, daily ip, 100 uG compound + 1 uG 17β-estradiol
Categories are defined by ranges of Uterine wt mg 100 uG cmpd + 1uG 17β-estradiol, namely bin 1: < 40 mg; bin 2: ≥ 40 mg and < 70 mg; bin 3: ≥ 70 mg

- Cc1c(-c2ccc(O)cc2)n(Cc2ccc(OCCN3CCCCCC3)cc2)c2ccc(O)cc12: bin 1
- N#Cc1c(-c2ccc(O)cc2)n(Cc2ccc(OCCN3CCCCC3)cc2)c2ccc(O)cc12: bin 1
- Cc1c(-c2ccccc2)n(Cc2ccc(OCCN3CCCCC3)cc2)c2ccccc12: bin 3
- Cc1c(-c2ccc(C(F)(F)F)cc2)n(Cc2ccc(OCCN3CCCCC3)cc2)c2ccc(O)cc12: bin 2
- Cc1c(-c2ccc(O)cc2)n(Cc2ccc(OCCN3CCCCC3)cc2)c2ccc(O)cc12: bin 1
- N#Cc1c(-c2ccc(O)cc2)n(Cc2ccc(OCCN3CCCCCC3)cc2)c2ccc(O)cc12: bin 2
- Cc1c(-c2ccc(O)cc2)n(Cc2ccc(OCCN3CCCCC3)cc2)c2ccc(F)cc12: bin 3
- Cc1c(-c2ccc(OC3CCCC3)cc2)n(Cc2ccc(OCCN3CCCCC3)cc2)c2ccc(O)cc12: bin 1
- COc1cc(Cn2c(-c3ccc(O)cc3)c(C)c3cc(O)ccc32)ccc1OCCN1CCCCCC1: bin 3

Reference source: patent US8815934B2
